Test system: HOP-92
assay summary: NCI tumour cell line growth inhibition, 48 h
Calls of active or inactive are those of the source. Cut-off read from the data, not from the text of the source: active = GI50 up to about 1.1 µM and inactive = higher.
Please go through the items and note down their GI50.

compound | experimental result
COC(=O)C12CCC(C(F)(F)C1=O)C2(C)C (stereo not drawn) | > 100 µM (inactive)
C=CCCCCCC(O)C(O)C/C=C\C/C=C\CC (stereo not drawn) | > 18.8 µM (inactive)

Consider the additional compound presented here.
Hello, please tell me recorded GI50 for this one: C/C=C1/C[C@@H](C)[C@@](C)(O)C(=O)OCC2=CC[N+]3([O-])CC[C@@H](OC1=O)[C@@H]23 (stereo partly drawn) [SENECIONINE N-OXIDE]
> 100 µM (inactive)

====

System: NCI-H226
assay summary: NCI tumour cell line growth inhibition, 48 h
The source made the active and inactive calls. Cut-off read from the data, not from the text of the source: active = GI50 up to about 1.1 µM and inactive = higher.
Please go through the items and note down their GI50.

Previously resolved entries follow.
molecule | GI50
COc1cc(C)c2c(=O)c3ccccc3n(C)c2c1 | 26.7 µM (inactive)
CCCCCCCCCCCCCCCCOCC(O)CO (stereo unspecified) | 18.7 µM (inactive)
CC1(C)N=C(C2CCCN2C(=O)OCc2ccccc2)OC1=O (stereo unspecified) | > 100 µM (inactive)
COC(=O)c1c(CC#N)cccc1CC#N | > 100 µM (inactive)
CC1Cc2c(N)nc(N3CCOCC3)nc2NC1=O (stereo unspecified) | > 100 µM (inactive)

List GI50 for every entry below, keeping the order given.
1. CC(C)C1=CC23CCC4C(C)(C(=O)O)CCCC4(C)C2CC1C1C(=O)N(c2ccc(Cc4ccc(N5C(=O)C6C7CC8C9(C)CCCC(C)(C(=O)O)C9CCC8(C=C7C(C)C)C6C5=O)cc4)cc2)C(=O)C13 (stereo unspecified)
2. O=C1c2ccccc2C2=Cc3ccccc3C(O)N12 (stereo unspecified)
3. CCOP(=O)(CCCC(O)CNc1nc(N)nc(Cl)c1/N=N/c1ccc(Cl)cc1)OCC (stereo unspecified)
4. O=C1c2ccccc2N2OC3(N4CCCC4)CCCC3C12c1ccccc1 (stereo unspecified)
5. Cc1cccc2c(N)c3cccc(C(=O)NCC[N+](C)(C)Cc4ccccc4[N+](=O)[O-])c3nc12

1: 13.6 µM (inactive); 2: > 100 µM (inactive); 3: 7.05 µM (inactive); 4: > 100 µM (inactive); 5: 3.94 µM (inactive)

Hello, please tell me recorded GI50 for this one: COC1=CC(=O)c2ccccc2C1(CCC=C(C)C)C1=NC(C)(C)CO1 (stereo unspecified)
> 100 µM (inactive)

====

Please go through the items and note down their GI50.
Tested on: SK-MEL-5
assay summary: NCI tumour cell line growth inhibition, 48 h
Activity calls are given as the source filed them. Rule as the data show it: active = GI50 up to about 1.1 µM and inactive = higher.

Previously resolved entries follow.
molecule | GI50
CN(CCO)c1nc(=O)c2c([nH]1)CCC2 | > 100 µM (inactive)
CC12CC(c3ccccc3O1)C(C(=O)Nc1nccs1)C(=O)N2 (stereo not drawn) | > 100 µM (inactive)

List GI50 for every entry below, keeping the order given.
1. NC1=NS(=O)(=O)Nc2nc(-c3ccc(Cl)cc3)c(-c3ccc(Cl)cc3)nc21
2. CN(c1nc(=[N+](C)C)ss1)C1CCCCC1
3. CCC1=CCN(c2cc(C)ccn2)OC1c1ccc(OC)cc1 (stereo not drawn)
4. COc1ccc(/N=[N+](\[O-])c2ccc(OC)cc2)cc1
5. CCC(=O)NC(Nc1cc(C)on1)(C(F)(F)F)C(F)(F)F
6. CCSc1ncnc2c(C3OC(CO)C(O)C3O)nsc12 (stereo not drawn)

> 100 µM (inactive)
68.7 µM (inactive)
16.9 µM (inactive)
> 100 µM (inactive)
> 100 µM (inactive)
> 100 µM (inactive)
